System: Gli1
Experiment: Gli1-Luciferase Reporter Assay (Shh Light 2 cells)
Format: cell-based, mouse
Conditions: Mus musculus, Shh Light2; Shh Light 2 cell line, Purmorphamine-induced, 24 hours; read-out: Luciferase cell based IC50
Recorded IC50, one value per entry.
MEASUREMENT_KIND: IC50

INSERT INTO assay_data (molecule, measured_result) VALUES
  ('COc1cccc2c1CC(N1CCc3nn(-c4ccccc4Cl)c(C)c3C1)C2 (stereo not shown) [Glx-369]', '73 nM'),
  ('COc1cccc2c1CN([C@H]1CCc3nn(-c4ccccc4Cl)c(C)c3[C@@H]1O)C2 [Glx-344A]', '172 nM'),
  ('COc1ccc(C#N)c2c1CN(C1CCc3nn(-c4ccccc4Cl)c(C)c3C1)C2 (stereo not shown) [Glx-341]', '16.7 nM'),
  ('COc1cccc2c1CN(C1CCc3nn(-c4ccccc4Cl)c(C)c3C1=O)C2 (stereo not shown) [Glx-402]', '430 nM'),
  ('COc1cccc2c1CN(C1CCc3nn(-c4ccccc4Cl)c(C)c3[C@@H]1O)C2 (stereo partly shown) [Glx-344]', '385 nM'),
  ('Cc1c2c(nn1-c1ccccc1Cl)CCC(N1Cc3cccc(C#N)c3C1)C2 (stereo not shown) [Glx-322]', '12 nM'),
  ('Cc1c2c(nn1-c1ccccc1Cl)CCC(N1Cc3c(F)ccc(C#N)c3C1)C2 (stereo not shown) [Glx-308]', '55 nM');
